From: PubChem BioAssay (NCI)

# assay-comment: NCI Yeast Anticancer Drug Screen. Data for the rad50 strain (AID 155);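 note: 0% = growth of vehicle-only cultures of the same strain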
# experimental-parameters: S. cerevisiae rad50 strain growth inhibition; at 50.0 µM; stronger effect = higher value
This is part of a sample that, as a whole, favours compounds with a hit. Of some 79,000 tested, about 15% had one in any assay.
Use -10% as the dividing line for growth inhibition, with the line itself on the 1 side and lower values as 0.

[
  {
    "compound": "COc1ccc(/C=C\\c2cc(OC)c(OC)c(OC)c2)cc1OC(=O)CC(N)C(=O)O (stereo unspecified)",
    "category": 0
  },
  {
    "compound": "O=c1c2ccccc2oc2cc([N+](=O)[O-])cc([N+](=O)[O-])c12",
    "category": 0
  },
  {
    "compound": "C=C1C(=O)C=C2C=C3C(=O)C(C)(C)C[C@]3(O)C12C (stereo partly specified)",
    "category": 1
  },
  {
    "compound": "CC(NS(=O)(=O)c1ccccc1)C(N)=O (stereo unspecified)",
    "category": 1
  },
  {
    "compound": "COc1cccc(/C=C2/Sc3sc(C(C)=O)c(C)[n+]3C2=O)c1O",
    "category": 0
  },
  {
    "compound": "CC(C)(C)NCCCCCO",
    "category": 0
  }
]

###

Here, each record is paired with measured growth inhibition data.
# assay-comment: NCI Yeast Anticancer Drug Screen. Data for the sgs1 mgt1 strain (AID 161);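 note: 0% = growth of cultures given vehicle only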
# experimental-parameters: S. cerevisiae sgs1 mgt1 strain, at 50.0 µM, stronger effect = higher value
# Description: Growth inhibition of yeast strains with defined genetic alterations is measured as a screen for potential anti-cancer activity. Selected strains with alterations in DNA damage repair or cell cycle control were exposed to compounds and growth inhibition was measured relative to vehicle treated controls. The strain used in this assay is sgs1 mgt1
This is part of a sample that, as a whole, favours compounds with a hit. Of some 79,000 tested, about 15% had one in any assay.

[
  {
    "molecule": "COc1cc(N)ccc1C(=O)NC(CCC(=O)O)C(=O)O (configuration not stated)",
    "growth inhibition / %": 24.9
  },
  {
    "molecule": "CC(=O)c1ccccc1C(=O)O",
    "growth inhibition / %": -6.65
  },
  {
    "molecule": "O=C1c2ccccc2C(=O)N1c1ccccc1Cl",
    "growth inhibition / %": 27.8
  },
  {
    "molecule": "O=[N+]([O-])c1ccc2[nH]c(=S)n(/C=C(/c3ccccc3)S(=O)Cc3ccccc3)c2c1 (configuration not stated)",
    "growth inhibition / %": -18.7
  },
  {
    "molecule": "CC[C@H]1OC(=O)[C@H](C)[C@@H](OC2CC(C)(OC)C(O)C(C)O2)[C@H](C)[C@@H](OC2OC(C)CC(N(C)C)C2OC(=O)CCC2CCCC2)[C@](C)(O)C[C@@H](C)C(=O)[C@H](C)[C@@H](O)[C@]1(C)O (some centres not stated)",
    "growth inhibition / %": 4.05
  },
  {
    "molecule": "CCN1CCC(O)(c2ccc(Oc3ccc(F)cc3)cc2)C(C(=O)c2ccc(Oc3ccc(F)cc3)cc2)C1 (configuration not stated)",
    "growth inhibition / %": 14.6
  },
  {
    "molecule": "CCOC(=O)C1C/C2=C(/CCCCCCCCCC2)SCCCS1 (configuration not stated)",
    "growth inhibition / %": -9
  },
  {
    "molecule": "CNn1c(C)n[nH]c1=O",
    "growth inhibition / %": 10.4
  },
  {
    "molecule": "CCCCCCNC(=O)c1ccc(C(=O)NCCCCCC)cc1",
    "growth inhibition / %": -27
  },
  {
    "molecule": "O=C1CC(=O)C(C(=O)c2ccccc2)N1 (configuration not stated)",
    "growth inhibition / %": 5.3
  },
  {
    "molecule": "Cc1ccc(Oc2cc(C)ccc2P(=O)(O)O)cc1",
    "growth inhibition / %": 22.2
  },
  {
    "molecule": "CCN(CC)C1Oc2cc3c(cc2C(c2cccc(OC)c2O)C1C)OCO3 (configuration not stated)",
    "growth inhibition / %": 22.8
  }
]

###

# assay-comment: NCI Yeast Anticancer Drug Screen. Data for the rad50 strain (AID 155);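 note: 0% = growth of vehicle-only cultures of the same strain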
# experimental-parameters: S. cerevisiae rad50 strain growth inhibition; at 50.0 µM; stronger effect = higher value
Compounds without any hit were thinned out: in the full panel of roughly 79,000, 15% have a hit.
measured-property: growth inhibition (%)

[
  {
    "compound": "OCCSCCCCCCSCCO",
    "measured-property": "growth inhibition",
    "value-measured": 6.95
  },
  {
    "compound": "c1ccc2c(-c3c[nH]c4ccccc34)c[nH]c2c1",
    "measured-property": "growth inhibition",
    "value-measured": 16.8
  },
  {
    "compound": "CC(C)(O)c1cccc(I)c1",
    "measured-property": "growth inhibition",
    "value-measured": 7.7
  },
  {
    "compound": "O=C(NNC(=O)c1ccccc1Br)c1ccccc1",
    "measured-property": "growth inhibition",
    "value-measured": -17.6
  },
  {
    "compound": "CCn1c2ccccc2c2cc(N)c(N=Nc3ccc(-c4ccc(N)c(OC)c4)cc3OC)cc21",
    "measured-property": "growth inhibition",
    "value-measured": 31.4
  },
  {
    "compound": "CC(=O)OC(C[N+]1(C)CCCCCC1)C[N+]1(C)CCCCCC1",
    "measured-property": "growth inhibition",
    "value-measured": -34.6
  },
  {
    "compound": "Cn1c(=O)c2ncn(Cc3ccccc3)c2n(C)c1=O",
    "measured-property": "growth inhibition",
    "value-measured": 1.8
  },
  {
    "compound": "CCCCNc1nc(SC)nc2nc[nH]c12",
    "measured-property": "growth inhibition",
    "value-measured": -9.35
  },
  {
    "compound": "OCCCOCc1ccccc1",
    "measured-property": "growth inhibition",
    "value-measured": 39.8
  },
  {
    "compound": "COC1OC2COC(c3ccccc3)OC2C(O)C1N=[N+]=[N-] (stereo not drawn)",
    "measured-property": "growth inhibition",
    "value-measured": 3.4
  },
  {
    "compound": "CN(C)[C@@H]1C(=O)C(C(=O)NCNC2CC(C)(C)N(O)C(C)(C)C2)=C(O)C2(O)C(=O)C3=C(O)c4c(O)cccc4[C@@](C)(O)C3CC12 (stereo partly drawn)",
    "measured-property": "growth inhibition",
    "value-measured": -1.2
  },
  {
    "compound": "CN1CCN(C(=O)/C(=C/c2ccccc2)NC(=O)c2ccccc2)CC1",
    "measured-property": "growth inhibition",
    "value-measured": -6.8
  },
  {
    "compound": "S=C(Nc1ccccc1)c1ccccc1",
    "measured-property": "growth inhibition",
    "value-measured": -23.2
  },
  {
    "compound": "O=C(CNC(=O)OCc1ccccc1)NCCNCCNC(=O)CNC(=O)OCc1ccccc1",
    "measured-property": "growth inhibition",
    "value-measured": -26.9
  },
  {
    "compound": "CCc1cccc(C(C)C)c1NC(=O)C(=O)C(CC(=O)Nc1ccc(Cl)c(Cl)c1)C(=O)OC (stereo not drawn)",
    "measured-property": "growth inhibition",
    "value-measured": -1.85
  },
  {
    "compound": "c1nc2c([nH]1)CNCC2",
    "measured-property": "growth inhibition",
    "value-measured": -3.05
  },
  {
    "compound": "C[n+]1cccc2c(=O)c3ccccc3oc21",
    "measured-property": "growth inhibition",
    "value-measured": 0.8
  },
  {
    "compound": "CN(C)c1nc2oc(-c3ccccc3)c(-c3ccccc3)c2c2nncn12",
    "measured-property": "growth inhibition",
    "value-measured": 9.65
  },
  {
    "compound": "C/C(=N\\NC(=O)c1ccncc1)c1ccccc1Cl",
    "measured-property": "growth inhibition",
    "value-measured": -23.3
  },
  {
    "compound": "COc1ccc([N+](=O)[O-])c2c1CONC2(C)C(=O)O (stereo not drawn)",
    "measured-property": "growth inhibition",
    "value-measured": 8.95
  },
  {
    "compound": "CCOC(=O)c1ccc(N[C@@H]2c3cc4c(cc3C(c3cc(OC)c(O)c(OC)c3)[C@H]3C(=O)OCC32)OCO4)cc1 (stereo partly drawn)",
    "measured-property": "growth inhibition",
    "value-measured": 85.6
  },
  {
    "compound": "O=C1NC(O)c2cccc(F)c2O1 (stereo not drawn)",
    "measured-property": "growth inhibition",
    "value-measured": 20.4
  },
  {
    "compound": "Nc1ccc(C(=O)N/N=C/C=C/c2ccccc2)cc1",
    "measured-property": "growth inhibition",
    "value-measured": 0.6
  },
  {
    "compound": "CC(=O)Nc1ccc(C(=O)C=O)cc1",
    "measured-property": "growth inhibition",
    "value-measured": -1.45
  },
  {
    "compound": "N#Cc1nc(-c2cc([N+](=O)[O-])cc([N+](=O)[O-])c2)oc1N",
    "measured-property": "growth inhibition",
    "value-measured": -14.6
  },
  {
    "compound": "CCCCc1[nH]nc(-c2n[nH]c(CCCC)c2C)c1C",
    "measured-property": "growth inhibition",
    "value-measured": 25.4
  },
  {
    "compound": "Cc1ccc([N+](=O)[O-])c(N)n1",
    "measured-property": "growth inhibition",
    "value-measured": 3.25
  },
  {
    "compound": "CC(=O)OC1CCC2(C)C(CCC3(C)C2CCC2C4C5OC(=O)C4(CCC5(C)C)CCC23C)C1(C)C (stereo not drawn)",
    "measured-property": "growth inhibition",
    "value-measured": -13
  },
  {
    "compound": "O=C1C(=O)C(c2ccccc2)S(=O)(=O)C1c1ccccc1 (stereo not drawn)",
    "measured-property": "growth inhibition",
    "value-measured": -5.3
  },
  {
    "compound": "CCOC(=O)CCC1(C(=O)OC)C(=O)CCCCCCCC1C(=O)OC (stereo not drawn)",
    "measured-property": "growth inhibition",
    "value-measured": -1.85
  },
  {
    "compound": "N=C(N)n1ncc(Cl)c(Cl)c1=O",
    "measured-property": "growth inhibition",
    "value-measured": 30.8
  },
  {
    "compound": "CC(=O)Nc1ncc(CCC2OCCO2)c(=O)[nH]1",
    "measured-property": "growth inhibition",
    "value-measured": -0.55
  },
  {
    "compound": "CN(N)c1cnn(-c2ccccc2)c(=O)c1Cl",
    "measured-property": "growth inhibition",
    "value-measured": -37.2
  },
  {
    "compound": "NC(=O)C1=CNCCC1",
    "measured-property": "growth inhibition",
    "value-measured": -1.15
  },
  {
    "compound": "Cc1cc(=O)c(O)c(C)o1",
    "measured-property": "growth inhibition",
    "value-measured": -1.4
  },
  {
    "compound": "O=C(NC1CCCCC1)C(c1ccccc1)c1ccccc1",
    "measured-property": "growth inhibition",
    "value-measured": 8.85
  },
  {
    "compound": "Cc1cccc(C(C)(C)C)c1NC(=O)/C(Cc1nc2ccc([N+](=O)[O-])cc2[nH]c1=O)=N/NC(=O)C[N+](C)(C)C",
    "measured-property": "growth inhibition",
    "value-measured": 6.4
  },
  {
    "compound": "CC(C)C(Nc1ncnc2nc[nH]c12)C(=O)O (stereo not drawn)",
    "measured-property": "growth inhibition",
    "value-measured": -25.6
  },
  {
    "compound": "N#C/C(=C(/Cc1ccc(F)cc1)NP(=O)(c1ccccc1)c1ccccc1)c1ccc(F)cc1",
    "measured-property": "growth inhibition",
    "value-measured": 10.9
  },
  {
    "compound": "CN(C)S(=O)(=O)c1ccc(CCc2ccc(S(=O)(=O)N(C)C)cc2)cc1",
    "measured-property": "growth inhibition",
    "value-measured": 13.6
  },
  {
    "compound": "COC1(OC)C(N(C)C)=C(Cl)C(=O)/C1=C/C=O",
    "measured-property": "growth inhibition",
    "value-measured": 7.75
  },
  {
    "compound": "COc1ccc2c(=O)c([Se]c3coc4cc(OC)ccc4c3=O)coc2c1",
    "measured-property": "growth inhibition",
    "value-measured": 7.2
  },
  {
    "compound": "COC(C)CCOC(=O)c1ccc(C(C)C)cc1 (stereo not drawn)",
    "measured-property": "growth inhibition",
    "value-measured": 6.45
  },
  {
    "compound": "Cc1ccccc1NCS(=O)(=O)O",
    "measured-property": "growth inhibition",
    "value-measured": 18.2
  },
  {
    "compound": "CCN(CC)CCCN1CC(=O)N2CCCCN2C(=O)C1",
    "measured-property": "growth inhibition",
    "value-measured": 28.8
  },
  {
    "compound": "Cc1ccc(Cl)c(NC(=O)C(=O)C(C(=O)c2ccncc2)C2OC(=O)c3ccccc32)c1 (stereo not drawn)",
    "measured-property": "growth inhibition",
    "value-measured": -14.6
  },
  {
    "compound": "COC(=O)Oc1ccc(Cl)cc1Cl",
    "measured-property": "growth inhibition",
    "value-measured": -18.1
  },
  {
    "compound": "c1ccc(C2SCSCS2)cc1",
    "measured-property": "growth inhibition",
    "value-measured": 12.1
  }
]
